Taken from patent US20090226527A1.

Test system: infectious agents (strains tested)
Assay: organism not typed
Format: cell-based
Settings: Fonsecae pedrosoi; read-out: Geometric Mean MIC
Property measured: MIC (µg/mL)
Give bare numbers, in µg/mL.

As a guide, the following entries are already answered.
• C[C@@H](c1ncncc1F)[C@](O)(Cn1cncn1)c1ccc(F)cc1F = 0.5
• CCC([C@@H](C)O)n1ncn(-c2ccc(N3CCN(c4ccc(OC[C@@H]5CO[C@@](Cn6cncn6)(c6ccc(F)cc6F)C5)cc4)CC3)cc2)c1=O (stereo partly shown) = 0.25
• C[C@@H]1[C@H](O)[C@@H](C)/C=C/C=C/C=C/C=C/C=C/C=C/C=C/[C@H](O[C@@H]2O[C@H](C)[C@@H](O)[C@H](N)[C@@H]2O)C[C@@H]2O[C@](O)(C[C@@H](O)C[C@@H](O)[C@H](O)CC[C@@H](O)C[C@@H](O)CC(=O)O[C@H]1C)C[C@H](O)[C@H]2C(=O)O = 1

We next turn to a different molecule, shown below.
Which MIC reading was recorded for the molecule CCC(C)n1ncn(-c2ccc(N3CCN(c4ccc(OCC5COC(Cn6cncn6)(c6ccc(Cl)cc6Cl)O5)cc4)CC3)cc2)c1=O (stereo not shown) ?
0.063

----------
Tested on: infectious agents (strains tested)
Experiment: organism not typed
Format: cell-based
Conditions: Bipolaris spp; read-out: Geometric Mean MIC
Would you mind telling me the reported MIC of each entry?
Give bare numbers, in µg/mL.

As a guide, the following entries are already answered.
* C[C@@H]1[C@H](O)[C@@H](C)/C=C/C=C/C=C/C=C/C=C/C=C/C=C/[C@H](O[C@@H]2O[C@H](C)[C@@H](O)[C@H](N)[C@@H]2O)C[C@@H]2O[C@](O)(C[C@@H](O)C[C@@H](O)[C@H](O)CC[C@@H](O)C[C@@H](O)CC(=O)O[C@H]1C)C[C@H](O)[C@H]2C(=O)O [Amphotericin] | 0.25
* CCC([C@@H](C)O)n1ncn(-c2ccc(N3CCN(c4ccc(OC[C@@H]5CO[C@@](Cn6cncn6)(c6ccc(F)cc6F)C5)cc4)CC3)cc2)c1=O (stereo partly shown) [Posaconazole] | 0.354
* C[C@@H](c1ncncc1F)[C@](O)(Cn1cncn1)c1ccc(F)cc1F [Voriconazole] | 1

We next turn to a different compound, shown below.
Which MIC reading was recorded for the compound CCC(C)n1ncn(-c2ccc(N3CCN(c4ccc(OCC5COC(Cn6cncn6)(c6ccc(Cl)cc6Cl)O5)cc4)CC3)cc2)c1=O (stereo not shown) [Itraconazole] ?
0.25

----------
Tested on: infectious agents (strains tested)
Assay: microbe, parasite or virus in culture
Format: cell-based
Settings: Candida albicans; read-out: MIC[90]
Property measured: MIC (µg/mL)
Numbers only, in µg/mL.

* C[C@@H]1[C@H](O)[C@@H](C)/C=C/C=C/C=C/C=C/C=C/C=C/C=C/[C@H](O[C@@H]2O[C@H](C)[C@@H](O)[C@H](N)[C@@H]2O)C[C@@H]2O[C@](O)(C[C@@H](O)C[C@@H](O)[C@H](O)CC[C@@H](O)C[C@@H](O)CC(=O)O[C@H]1C)C[C@H](O)[C@H]2C(=O)O | 1
* C[C@@H](c1ncncc1F)[C@](O)(Cn1cncn1)c1ccc(F)cc1F | 0.063
* CCC([C@@H](C)O)n1ncn(-c2ccc(N3CCN(c4ccc(OC[C@@H]5CO[C@@](Cn6cncn6)(c6ccc(F)cc6F)C5)cc4)CC3)cc2)c1=O (stereo partly shown) | 0.25

We next turn to a different compound, shown below.
Lab note: need MIC for CCC(C)n1ncn(-c2ccc(N3CCN(c4ccc(OCC5COC(Cn6cncn6)(c6ccc(Cl)cc6Cl)O5)cc4)CC3)cc2)c1=O (stereo not shown) on infectious agents (strains tested), anyone have it?
0.25
